The origin of these recorded values is paper PMC8708382.

Task for the reader: assign each of the following compounds its reported pIC50.
Target: hKAT-II (Homo sapiens)
Construct: hexahistidine tag (N); made in house; host or cells: E. coli BL21(DE3)-RIL
Assay: Coupled fluorescence in vitro inhibition assay of hKAT-II
Type: biochemical
Details: 30 min pre-incubation; 20 nM hKAT-II; non-linear regression (four parameters); read-out: IC50 ± SEM
One number for each entry, as −log10 of the molar value.

Please report pIC50 for every entry that follows.
1. C[C@H](N)C(=O)c1cn(-c2ccccc2)nn1 [Compound 12, 4-alaninoyl-1-phenyl-1H-1,2,3-triazole]
2. C[C@H](N)C(=O)c1ncc(-c2ccc(F)cc2)s1 [Compound 49a, 2-alaninoyl-5-(4-fluorophenyl)thiazole]
3. CC[C@H](N)C(=O)c1ncc(-c2ccc(F)cc2Cl)s1.Cl [Compound 49d]
4. C[C@H](N)C(=O)c1ncc(-c2ccccc2)s1 [Compound 11, 2-alaninoyl-5-phenylthiazole]

Reply:
1. 5.49
2. 7.01
3. 6.52
4. 5.79

* * *

Target: hKAT-II (Homo sapiens, UniProt Q8N5Z0)
Construct: hexahistidine tag (N); made in house; host or cells: E. coli BL21(DE3)-RIL
Sequence (Q8N5Z0 30-425): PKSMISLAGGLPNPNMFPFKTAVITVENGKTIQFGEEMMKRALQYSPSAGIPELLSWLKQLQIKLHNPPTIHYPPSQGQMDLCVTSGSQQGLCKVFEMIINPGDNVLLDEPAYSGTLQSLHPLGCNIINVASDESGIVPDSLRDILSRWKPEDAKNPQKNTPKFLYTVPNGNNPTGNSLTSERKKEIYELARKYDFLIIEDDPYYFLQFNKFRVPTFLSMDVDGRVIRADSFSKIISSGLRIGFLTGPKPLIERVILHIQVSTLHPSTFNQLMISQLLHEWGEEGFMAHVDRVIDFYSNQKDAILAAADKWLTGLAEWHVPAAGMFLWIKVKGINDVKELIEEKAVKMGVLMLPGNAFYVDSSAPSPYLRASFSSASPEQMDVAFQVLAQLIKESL
Test: Coupled fluorescence in vitro inhibition assay of hKAT-II
Format: biochemical
Details: c = 1 µM; 30 min pre-incubation with enzyme; 20 nM hKAT-II; mean ± SEM
Experimental: The inhibitory activity of amino ketones 11 and 12 was evaluated using a fluorimetric in vitro assay. The activity was determined as the percentage of inhibition (%I) at a concentration of 1 µmol/L and also as IC50 values (Table 1). […] hKAT-II activity was measured using a fluorescence assay utilizing L-α-aminoadipic acid (AAD) and α-ketoglutarate as the substrates as previously described. […] The plate was shaken for 20 s before reading. […]
Give Inhibitory Activity [%I ± SEM] c = 1 µM for every item shown.
One number for each entry, in %I.

Task item: Request - read-out Inhibitory Activity [%I ± SEM] c = 1 µM | tested on hKAT-II (Homo sapiens, UniProt Q8N5Z0) | compound C[C@H](N)C(=O)c1cn(-c2ccccc2Cl)nn1.Cl [Compound 26t]
Reply: 35.52

Task item: Query for hKAT-II (Homo sapiens, UniProt Q8N5Z0): what Inhibitory Activity [%I ± SEM] c = 1 µM does the record show for C[C@H](N)C(=O)c1cn(-c2ccc(F)c(Cl)c2)nn1 [Compound 26v] ?
Reply: 23.62

Each compound below has a recorded value; state its Inhibitory Activity [%I ± SEM] c = 1 µM.
1. C[C@H](N)C(=O)c1ncc(-c2ccc(F)cc2)s1 [Compound 49a, 2-alaninoyl-5-(4-fluorophenyl)thiazole]
2. CC[C@H](N)C(=O)c1ncc(-c2ccccc2)s1 [Compound 25e]
3. C[C@H](N)C(=O)c1cn(-c2ccc(F)cc2)nn1.Cl [Compound 26n]
4. C[C@H](N)C(=O)c1ncc(-c2ccc(F)cc2Cl)s1.Cl [Compound 49c]
5. CC[C@H](N)C(=O)c1nc2ccc(F)cc2s1.Cl [Compound 34d]
6. C[C@H](N)C(=O)c1cn(-c2ccc(C(F)(F)F)cc2)nn1 [Compound 26o]

Reply:
1. 61.54
2. 44.18
3. 41.77
4. 47.65
5. 9.73
6. 9.70

Task item: Test system hKAT-II (Homo sapiens, UniProt Q8N5Z0); read-out Inhibitory Activity [%I ± SEM] c = 1 µM; what value for C[C@H](N)C(=O)c1cn(-c2ccncc2)nn1.Cl.Cl [Compound 26m] ?
Reply: 33.48

* * *

Field: melting point. Provide a value for each of the compounds that follow.

Known melting point results, listed for orientation:
Task item: Data request, read-out melting point, for C[C@H](N)C(=O)c1cn(-c2ccc3ccccc3c2)nn1 [Compound 26j]
Reply: > 182 °C (dec.)

Task item: Entry under review: N[C@H](C(=O)c1ncc(-c2ccccc2)s1)C1CC1 [Compound 25f] . Reported melting point?
Reply: > 165 °C (dec.)

Task item: Bench note: what melting point did CCCC[C@H](N)C(=O)c1ncc(-c2ccccc2)s1 [Compound 25d] show?
Reply: 124 to 127 °C

Task item: What value of measured melting point is listed for Cl.N[C@@H](CCc1ccccc1)C(=O)c1cn(-c2ccccc2)nn1 [Compound 21c] ?
Reply: > 175 °C (dec.)

Task item: For the compound shown here, C[C@H](N)C(=O)c1cn(Cc2ccccc2)nn1.Cl [Compound 28a] , give the reported melting point.
Reply: > 182 °C (dec.)

Hi team, please reply with melting point for each item in this list.
1. N[C@H](C(=O)c1cn(-c2ccccc2)nn1)C1CC1 [Compound 21f]
2. C[C@H](N)C(=O)c1cn(-c2cccc(Cl)c2)nn1 [Compound 26s]
3. N[C@@H](Cc1ccccc1)C(=O)c1ncc(-c2ccccc2)s1 [Compound 25b]

Reply:
["> 183 °C (dec.)", "> 171 °C (dec.)", "> 175 °C (dec.)"]

For each listed entry, give its melting point.
1. CC(C)[C@H](N)C(=O)c1cn(-c2ccccc2)nn1.Cl [Compound 21a]
2. C[C@H](N)C(=O)c1cn(-c2cccc3ccccc23)nn1 [Compound 26i]
3. COc1ccc(-n2cc(C(=O)[C@H](C)N)nn2)cc1 [Compound 26a]
4. CC[C@H](N)C(=O)c1nc2ccc(F)cc2s1.Cl [Compound 34d]
5. CC[C@H](N)C(=O)c1nc2ccccc2s1.Cl [Compound 34c]
6. C[C@H](N)C(=O)c1cn(-c2ccc(F)cc2Cl)nn1 [Compound 32a]

Reply:
1: > 182 °C (dec.); 2: > 172 °C (dec.); 3: > 180 °C (dec.); 4: > 145 °C (dec.); 5: > 140 °C (dec.); 6: > 158 °C (dec.)

* * *

For each entry below, report its Inhibitory Activity [%I ± SEM] c = 1 µM value.
Target: hKAT-II (Homo sapiens)
Construct: hexahistidine tag (N); made in house; host or cells: E. coli BL21(DE3)-RIL
Test: Coupled fluorescence in vitro inhibition assay of hKAT-II
Type: biochemical
Settings: c = 1 µM; 30 min pre-incubation with enzyme; 20 nM hKAT-II; mean ± SEM
Answers are plain numbers, in %I.

// solved cases for Inhibitory Activity [%I ± SEM] c = 1 µM follow
Task item: Bench note: what Inhibitory Activity [%I ± SEM] c = 1 µM did CCCC[C@H](N)C(=O)c1ncc(-c2ccccc2)s1 [Compound 25d] show?
Reply: 37.22

Task item: Data request, read-out Inhibitory Activity [%I ± SEM] c = 1 µM, for CC(C)[C@H](N)C(=O)c1cn(-c2ccccc2)nn1.Cl [Compound 21a]
Reply: 10.32

Task item: What does the data say about its Inhibitory Activity [%I ± SEM] c = 1 µM? Entry: N[C@@H](Cc1ccccc1)C(=O)c1ncc(-c2ccccc2)s1 [Compound 25b]
Reply: 7.22

Task item: Reported Inhibitory Activity [%I ± SEM] c = 1 µM for C[C@H](N)C(=O)c1cn(-c2ccc(C(C)(C)C)cc2)nn1 [Compound 26d] : what is it?
Reply: 0.98

Task item: So what's the measured Inhibitory Activity [%I ± SEM] c = 1 µM for this one? C[C@H](N)C(=O)c1cn(Cc2ccccc2)nn1.Cl [Compound 28a]
Reply: 14.54

Task item: Please report the recorded Inhibitory Activity [%I ± SEM] c = 1 µM for C[C@H](N)C(=O)c1cn(-c2ccc(Cl)cc2)nn1.Cl [Compound 26r] .
Reply: 23.86

Task item: Can you look up the measured Inhibitory Activity [%I ± SEM] c = 1 µM of Cc1ccc(-n2cc(C(=O)[C@H](C)N)nn2)cc1 [Compound 26e] for me?
Reply: 18.56

Task item: GET /values?readout=Inhibitory Activity [%I ± SEM] c = 1 µM&item= CC[C@H](N)C(=O)c1ncc(-c2ccc(F)cc2Cl)s1.Cl [Compound 49d]
Reply: 59.71

Each compound below has a reported value. Please supply its Inhibitory Activity [%I ± SEM] c = 1 µM.
1. C[C@H](N)C(=O)c1cn(-c2cccnc2)nn1 [Compound 26l]
2. C[C@H](N)C(=O)c1cn(CCc2ccccc2)nn1.Cl [Compound 28b]
3. COc1cccc(-n2cc(C(=O)[C@H](C)N)nn2)c1 [Compound 26b]
4. C[C@H](N)C(=O)c1cn(-c2cccc([N+](=O)[O-])c2)nn1.Cl [Compound 26p]
5. COc1ccccc1-n1cc(C(=O)[C@H](C)N)nn1 [Compound 26c]
6. Cc1ccc(-n2cc(C(=O)[C@H](C)N)nn2)cc1C [Compound 26f]
7. C[C@H](N)C(=O)c1cn(-c2ccc([N+](=O)[O-])cc2)nn1.Cl [Compound 26q]

Reply:
[23.63, 11.84, 18.20, 41.43, 23.41, 9.10, 41.73]

* * *

Measured metric: melting point

Examples with answers:
Task item: Consider the compound shown here: Cc1ccc(-n2cc(C(=O)[C@H](C)N)nn2)cc1 [Compound 26e] What is its recorded melting point?
Reply: > 184 °C (dec.)

Task item: Fill blank: measured melting point of the compound CC[C@H](N)C(=O)c1cn(-c2ccc(F)cc2Cl)nn1 [Compound 32b] is ____.
Reply: > 196 °C (dec.)

Provide reported melting point for each item, in the same order as listed.
1. Cc1ccc(-n2cc(C(=O)[C@H](C)N)nn2)cc1C [Compound 26f]
2. C[C@H](N)C(=O)c1cn(-c2cccc([N+](=O)[O-])c2)nn1.Cl [Compound 26p]
3. C[C@H](N)C(=O)c1cn(-c2ccccc2Cl)nn1.Cl [Compound 26t]

Reply:
1: > 170 °C (dec.); 2: > 183 °C (dec.); 3: 138 to 169 °C (dec.)

Dear colleague, could you send me melting point for each of the items below? Thanks.
1. Cc1ccc(-n2cc(C(=O)[C@H](C)N)nn2)c(C)c1 [Compound 26g]
2. CC(C)[C@H](N)C(=O)c1ncc(-c2ccccc2)s1 [Compound 25a]
3. N[C@@H](Cc1ccccc1)C(=O)c1cn(-c2ccccc2)nn1 [Compound 21b]

Reply:
["> 175 °C (dec.)", "> 170 °C (dec.)", "> 174 °C (dec.)"]

Task item: Item C[C@H](N)C(=O)c1nc2ccccc2s1.Cl [Compound 34a] has what recorded melting point?
Reply: > 156 °C (dec.)
